# procedureDetails: gradient 5% acetonitrile 3 min, to 50% in 2 min, to 85% in 15 min, held 3 min, 100 µL/min
# conditionSet: column: Zorbax Extend-C18 2.1 x 50 mm; eluents: water / acetonitrile, 0.1% formic acid
parameterMeasured: RP-LC retention time (s)

>>> observedresult("COc1ccccc1-c1noc(Cn2c(=O)n(Cc3ccc(F)cc3)c(=O)c3sccc32)n1")
1020
>>> observedresult("O=C(Nc1cc(F)cc(F)c1)C1CCN(C(=O)c2ncn3c2COC(c2ccc(F)cc2)C3)CC1 (centres undefined)")
858
>>> observedresult("CC(C)Cn1cc(CCNC(=O)c2cc(F)ccc2F)c2cccnc21")
868
>>> observedresult("O=C(NC1CC1)c1ccccc1OCC1CCN(C(=O)c2cc(F)cc(F)c2)CC1")
848
>>> observedresult("COc1cccc(S(=O)(=O)N2CC(n3ccnc3)C2)c1")
601
>>> observedresult("COc1ccc(NC(=O)N2[C@H]3CC[C@@H]2c2cnc(C)nc2C3)cc1OC")
611
>>> observedresult("COCC1CN(C(=O)c2ccc3cc[nH]c3c2)CC12CCOCC2 (centres undefined)")
680
>>> observedresult("Cc1cc(C)n(CC(O)COc2ccc(C(=O)c3ccc(Cl)cc3)cc2)n1 (centres undefined)")
848
>>> observedresult("COc1cccc(N2CCN(C(=O)Cn3ccc4c(SCc5ccccc5)nccc43)CC2)c1")
775
>>> observedresult("COc1ccc(-n2ccnc(NC(=O)Nc3cccc(F)c3)c2=O)cc1OC")
882
>>> observedresult("COc1ccccc1OCCNC(=O)C1CCc2nc(N3CCC(C)CC3)ncc2C1 (centres undefined)")
776
>>> observedresult("CCN1C(=O)COc2ccc(-c3noc(C4CC(=O)N(c5ccccc5)C4)n3)cc21 (centres undefined)")
879
>>> observedresult("O=C(CC1CCCC1)N1CCC(c2noc(-c3ccncc3)n2)C1 (centres undefined)")
786
>>> observedresult("Cc1ccc(C(=O)N2[C@H]3CC[C@@H]2c2cnc(-c4ccccc4)nc2C3)cn1")
689
>>> observedresult("O=C(CCc1conc1-c1cccc(F)c1)NCc1ccc(F)cc1")
899
>>> observedresult("Cc1cc(F)ccc1NC(=O)c1n[nH]nc1Nc1ccc(F)cc1")
923
>>> observedresult("O=C(NCc1nc(-c2ccc(N3CCCC3)cc2)no1)c1cccs1")
962
>>> observedresult("Cn1c(=O)c2cc(C(=O)Nc3ccccc3Cl)cnc2n(-c2ccccc2)c1=O")
882
>>> observedresult("O=C(CC1CCN(C(=O)c2ccc3oc(-c4ccccc4)nc3c2)CC1)NC1CC1")
728

These measurements were taken from the METLIN SMRT retention time set (Domingo-Almenara et al. 2019).
